Recorded values, source PubChem BioAssay.

Please respond with reported inhibition for every item in the list.
# experimental_protocol: growth inhibition, MDA-MB-436, cell-based, BGB or cisplatin combos, synergistic combos for chromothripsis tumors (AID 1671458);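 also: cells exposed for 96 hours; 0% = vehicle DMSO and 100% = killing by high DMSO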
# assay_setup: MDA-MB-436 breast carcinoma growth inhibition, drug combinations; measured here: cisplatin combination; at 5 µM; stronger effect = higher value
Non-standard residues stand in square brackets, D forms with d. Residues, ends and D or L forms follow the SMILES beside them. Dolaproine = CO[C@@H]([C@@H]1CCCN1)[C@@H](C)C(=O)O; Dil = CC[C@H](C)[C@H](NC)[C@@H](CC(=O)O)OC; NMeV = CN[C@H](C(=O)O)C(C)C
Write it as a number; the unit % goes unstated.

**Q:** Supply measured inhibition of "C[C@@H]1COCCN1c1cc(C2(S(C)(=O)=O)CC2)nc(-c2cccc3[nH]ccc23)n1" in your reply.
**A:** 85.8

**Q:** Using known records, supply inhibition for "Cc1cc(C=CC#N)cc(C)c1Nc1ccnc(Nc2ccc(C#N)cc2)n1"
**A:** -32.4

**Q:** Determine from records and report inhibition for CC[C@H](C)[C@@H]([C@@H](CC(=O)N1CCC[C@H]1[C@H](OC)[C@@H](C)C(=O)N[C@@H](Cc1ccccc1)C(=O)O)OC)N(C)C(=O)[C@@H](NC(=O)[C@@H](NC)C(C)C)C(C)C (H-[NMeV]V[Dil][Dolaproine]F-OH)
**A:** 73.6

**Q:** Report measured inhibition; entry is "COc1nc(N)nc2c1ncn2[C@@H]1O[C@H](CO)[C@@H](O)[C@H]1O"
**A:** -9.18

**Q:** Answer with the recorded inhibition for the compound listed here: CC(C)OC(=O)[C@H](C)NP(=O)(OC[C@H]1O[C@@H](n2ccc(=O)[nH]c2=O)C(C)(F)[C@@H]1O)Oc1ccccc1 (stereo partly drawn)
**A:** -5.77

**Q:** Name the recorded inhibition of the compound listed here: "C[n+]1ccc(-c2c3nc(c(-c4cc[n+](C)cc4)c4ccc([nH]4)c(-c4cc[n+](C)cc4)c4nc(c(-c5cc[n+](C)cc5)c5ccc2[nH]5)C=C4)C=C3)cc1"
**A:** -11.9

**Q:** Please give measured inhibition of the following entry: CC1OC(n2cc(F)c(=O)[nH]c2=O)C(O)C1O (stereo not drawn)
**A:** 12

**Q:** Give inhibition for CC(=O)C1(O)Cc2c(O)c3c(c(O)c2C(OC2CC(N)C(O)C(C)O2)C1)C(=O)c1ccccc1C3=O (stereo not drawn)
**A:** 92.7
